Biological target: human 5-HT6 receptor (Homo sapiens)
Construct: host or cells: CHO-K1 cells, stably transfected; membranes prepared in house
Sequence (P50406 whole entry): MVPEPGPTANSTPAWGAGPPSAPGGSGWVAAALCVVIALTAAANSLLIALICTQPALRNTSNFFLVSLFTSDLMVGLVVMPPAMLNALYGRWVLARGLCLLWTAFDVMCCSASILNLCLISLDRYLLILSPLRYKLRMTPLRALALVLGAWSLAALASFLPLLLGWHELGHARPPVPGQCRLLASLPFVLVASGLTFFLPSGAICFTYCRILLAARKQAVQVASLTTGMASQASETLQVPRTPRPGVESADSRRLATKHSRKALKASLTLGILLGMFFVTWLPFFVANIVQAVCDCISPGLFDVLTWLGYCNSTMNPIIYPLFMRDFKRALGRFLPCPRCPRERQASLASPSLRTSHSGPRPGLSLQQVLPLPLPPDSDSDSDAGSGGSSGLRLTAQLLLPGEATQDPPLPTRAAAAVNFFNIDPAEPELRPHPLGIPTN
Experiment: Human 5-HT6 Receptor Binding Assay ([3H]LSD displacement, scintillation beads)
Conditions: membranes of CHO-K1 cells with recombinant human 5-HT6, 4 nM [3H]LSD; Table 1, class symbols; read-out: h5-HT6 (Ki)
pKi: −log10 of the molar value.
reported.endpoint: pKi

> print(dat)
                                   compound  value.reported
1  O=S(=O)(c1ccc2c(c1)OC1CNCCC21)c1cccc2c1CCO2 (stereo not drawn) [Example 405]    6.00 to 6.30
2  COCCN1CCc2c(oc3cc(S(=O)(=O)c4ccccc4)ccc23)C1 [Example 594]          > 6.30
3  O=S(=O)(c1ccc2c(c1)OC1CNCCC21)c1ccccc1OCC(F)(F)F (stereo not drawn) [Example 421]          > 6.30
4  O=S(=O)(c1ccc2c(c1)OCCO2)c1cccc2c1OC1CNCCC21 (stereo not drawn) [Example 185]          > 6.30
5  CC(C)Oc1cc(OCCO)cc(S(=O)(=O)c2ccc3c(c2)OC2CNCCC32)c1 (stereo not drawn) [Example 590]          > 6.30
6  O=[N+]([O-])c1ccc(S(=O)(=O)Oc2ccc3c(c2)C2CCNCC2O3)cc1 (stereo not drawn) [Example 749]          < 6.00
7  O=S(=O)(Nc1ccccc1F)c1ccc2c(c1)C1CCNCC1O2 (stereo not drawn) [Example 839]          < 6.00
8  O=S(=O)(c1ccc2oc3c(c2c1)CCNC3)c1c(F)c(F)cc(F)c1F [Example 274]          > 6.30
9  CC12CCNCC1Oc1ccc(OS(=O)(=O)Cc3ccc(Cl)cc3)cc12 (stereo not drawn) [Example 789]          < 6.00

---

Each entry below carries its recorded Ki.
Target: human 5-HT6 receptor (Homo sapiens)
Construct: host or cells: CHO-K1 cells, stably transfected; membranes prepared in house
Assay: Human 5-HT6 Receptor Binding Assay ([3H]LSD displacement, scintillation beads)
Settings: membranes of CHO-K1 cells with recombinant human 5-HT6, 4 nM [3H]LSD; Table 1, class symbols; read-out: h5-HT6 (Ki)
Structures can show the parent of a compound that is named as a salt.
reported.endpoint: Ki

> print(dat)
                                    compound  reported.endpoint  value.reported
 1  O=S(=O)(c1ccc2oc3c(c2c1)CCNC3)c1cc(Cl)ccc1Cl                 Ki        < 500 nM
 2  O=S(=O)(c1cccc(OC2CCOCC2)c1)c1ccc2c(c1)OC1CNCCC21 (centres unmarked)                 Ki        < 500 nM
 3  CC12CCNCC1Oc1cc(S(=O)(=O)c3cccc(F)c3F)ccc12 (centres unmarked)                 Ki        < 500 nM
 4  O=S(=O)(Oc1ccc2c(c1)C1CCNCC1O2)c1cc2ccccc2o1 (centres unmarked) [Example 714]                 Ki        < 500 nM
 5  O=S(=O)(c1ccccc1)c1ccc2c3c(oc2c1)CN(CC(F)(F)F)CC3                 Ki        < 500 nM
 6  O=S(=O)(Oc1ccc2c(c1)C1CCNCC1O2)c1ccccn1 (centres unmarked)                 Ki       > 1000 nM
 7  O=S(=O)(Oc1ccc2c(c1)OC1CNCCC21)c1cccc(C(F)(F)F)c1 (centres unmarked)                 Ki        < 500 nM
 8  O=S(=O)(Oc1ccc2c(c1)C1CCNCC1O2)c1cccc2nsnc12 (centres unmarked)                 Ki       > 1000 nM
 9  CC1(C)NCCc2c1oc1cc(S(=O)(=O)c3c[nH]c(=O)c(C(F)(F)F)c3)ccc21                 Ki       > 1000 nM
10  COCCCOc1cc(OC(C)C)cc(S(=O)(=O)c2ccc3c(c2)OC2CNCCC32)c1 (centres unmarked)                 Ki        < 500 nM
11  O=S(=O)(c1cccc(OCCCO)c1)c1ccc2c(c1)OC1CNCCC21 (centres unmarked)                 Ki        < 500 nM
12       CC(C)S(=O)(=O)c1ccc2oc3c(c2c1)CCNC3                 Ki       > 1000 nM
13  CC1(C)NCCc2c1oc1cc(S(=O)(=O)c3cccc(OC(F)(F)F)c3)ccc21                 Ki        < 500 nM
14  CC1OCCC12NCCc1c2oc2cc(S(=O)(=O)c3cccc(F)c3)ccc12 (single isomer, unassigned) [Example 59]                 Ki        < 500 nM
15  O=S(=O)(c1ccc2c(c1)OC1CNCCC21)c1cccc(Cl)c1F (centres unmarked) [Example 409]                 Ki        < 500 nM
16  Cc1cccc(S(=O)(=O)Oc2ccc3c(c2)C2CCNCC2O3)c1 (centres unmarked)                 Ki        < 500 nM
17  CC12CCNCC1Oc1ccc(S(=O)(=O)c3ccccc3)cc12 (centres unmarked) [Example 62, hydrochloride]                 Ki       > 1000 nM
18  Cc1c(S(=O)(=O)Oc2ccc3c(c2)OC2CNCCC32)sc2ccc(Cl)cc12 (centres unmarked) [Example 797]                 Ki        < 500 nM
19  O=S(=O)(c1cccc(F)c1)c1ccc2oc3c(c2c1)CCNC3CCBr (centres unmarked)                 Ki        < 500 nM
20  COc1c(F)cc(F)cc1S(=O)(=O)c1ccc2c(c1)OC1CNCCC21C (centres unmarked)                 Ki        < 500 nM
21  O=S(=O)(c1cccc(F)c1)c1ccc2oc3c(c2c1)CCNC3C1CCOCC1 (centres unmarked)                 Ki        < 500 nM
22  O=S(=O)(c1ccc(Cl)c(Cl)c1)c1ccc2c(c1)C1CCNCC1O2 (centres unmarked)                 Ki        < 500 nM
23  O=S(=O)(c1cccc(F)c1)c1ccc2c3c(oc2c1)C1(CCOC1)NCC3 (single isomer, unassigned) [Example 52]                 Ki        < 500 nM
24  O=S(=O)(c1cccc(OCCn2cccc2)c1)c1ccc2c(c1)OC1CNCCC21 (centres unmarked)                 Ki        < 500 nM
25  O=S(=O)(c1cccc(C(F)(F)F)c1)c1ccc2c3c(oc2c1)CNCC3                 Ki        < 500 nM
26  CC12CCNCC1Oc1ccc(S(=O)(=O)c3ccc(F)cc3)cc12 (centres unmarked)                 Ki       > 1000 nM
27  O=S(=O)(c1cc(Cl)cc(Cl)c1)c1ccc2c3c(oc2c1)CNCC3                 Ki        < 500 nM
28  O=S(=O)(c1cc(F)cc(OCC2CCOCC2)c1)c1ccc2c(c1)OC1CNCCC21 (centres unmarked)                 Ki        < 500 nM
29  Cc1cc(C)cc(S(=O)(=O)Oc2ccc3c(c2)C2CCNCC2O3)c1 (centres unmarked)                 Ki        < 500 nM
30  O=S(=O)(c1ccc(F)cc1)c1ccc2c(c1)OC1CNCCC21 (centres unmarked)                 Ki        < 500 nM
31  O=S(=O)(Nc1ccc2c(c1)C1CCNCC1O2)c1ccc(Cl)cc1 (centres unmarked)                 Ki        < 500 nM
32  O=S(=O)(c1ccc2c(c1)OC1CNCCC21)c1cccc2cccnc12 (centres unmarked) [Example 332]                 Ki        < 500 nM
33  CC(C)CN1CCc2c(oc3cc(S(=O)(=O)c4ccccc4)ccc23)C1                 Ki        < 500 nM
34  O=S(=O)(c1cccc(Cl)c1)c1ccc2c(c1)OC1CNCCC21 (centres unmarked)                 Ki        < 500 nM
35  CN(c1ccc2c(c1)OC1CNCCC21)S(=O)(=O)c1c(Cl)nc2sccn12 (centres unmarked)                 Ki        < 500 nM

// data source = patent US8765779B2
